test system: UO-31; assay: NCI tumour cell line growth inhibition, 48 h
Calls of active or inactive are those of the source. Rule as the data show it: active = GI50 up to about 1.1 µM and inactive = higher.
measure: GI50

Take a look at these entries with their results.
Can you look up GI50 on UO-31 for OC1(c2ccccc2)C2CC=CC2C1(c1ccccc1)c1ccccc1 (configuration not stated) ? 31.1 µM (inactive)

Report GI50 for COC(=O)C(=O)C(C(=O)C(=O)Nc1ccc(Cl)c(Cl)c1)c1nc2ccc(C(=O)c3ccccc3)cc2nc1O (configuration not stated) tested on UO-31. 26.4 µM (inactive)

Request body: readout GI50, system UO-31, query CNc1ccc(/C=C2\C=Cc3ccccc32)cc1 . Return the value. 10.2 µM (inactive)

Kindly state the measured GI50 obtained for Cc1cc(N)c2cc(NC(=O)Nc3ccc4nc(C)cc(N)c4c3)ccc2n1 with UO-31. > 100 µM (inactive)

Recorded GI50 for NC(C(=O)O)c1cc(O)no1 (configuration not stated) with UO-31, please? > 100 µM (inactive)

Give UO-31 GI50 for O=C(NCCN(CCNC(=O)c1cccc(=O)n1O)CCNC(=O)c1cccc(=O)n1O)c1cccc(=O)n1O > 100 µM (inactive)

For the record O=C(NCO)NCOCn1c(=O)n(CO)c(=O)n(CO)c1=O , what value of GI50 is listed for UO-31? > 100 µM (inactive)

Identify the measured GI50 of C[C@H]1[C@H](N2CCCC2)O[Si](C(C)(C)C)(C(C)(C)C)[C@@H]1C for UO-31. > 100 µM (inactive)

Next:
Which measured GI50 belongs to CCC12CCC(O)C1N(C)CCC2Sc1ccccc1 (configuration not stated) , tested on UO-31? 28.8 µM (inactive)

Can you look up GI50 on UO-31 for Cc1cc(C)c2c(=O)cc(-c3ccccc3)[nH]c2c1 ? 9.46 µM (inactive)

Hi! What's the reported GI50 for C/C=C(/C)c1cnc(CC(C)C)c(=O)[nH]1 on UO-31? > 100 µM (inactive)

Lookup: GI50 / UO-31 / Cc1cc2nc(O)c(CCC(=O)O)nc2cc1C > 100 µM (inactive)

====

test system: SNB-75; test: NCI tumour cell line growth inhibition, 48 h
Calls of active or inactive are those of the source. Rule as the data show it: active = GI50 up to about 1.1 µM and inactive = higher.
measure: GI50

What measured GI50 goes with O=S(=O)(O)c1cc(S(=O)(=O)O)c2c(/N=N/c3ccc(/N=N/c4ccccc4)cc3)c(O)ccc2c1 ? > 100 µM (inactive)

Data request, read-out GI50, for OC1(c2ccccc2)C2CC=CC2C1(c1ccccc1)c1ccccc1 (centres undefined) 34.1 µM (inactive)

May I ask what GI50 has been recorded for CO/N=C1/C(n2[nH]c(=O)n(-c3ccccc3)c2=O)C2C=CC1n1c(=O)n(-c3ccccc3)c(=O)n12 (centres undefined) ? > 100 µM (inactive)

Which value of GI50 has been reported for NCCCCNCCCNC(=O)c1nc(-c2csc(CCN)n2)sc1Cl in the records? > 100 µM (inactive)

# get_value(readout='GI50', item= O=C1OC(c2ccccc2)=N/C1=C/NC(Cc1c[nH]c2ccccc12)C(=O)O (centres undefined) ) 69.7 µM (inactive)

Now look at this one.
Which measured GI50 value corresponds to O=C(CNC(=O)OCc1ccccc1)NCCCCC(NC(=O)OCc1ccccc1)C(=O)NC(CCCCNC(=O)CNC(=O)OCc1ccccc1)C(=O)OCc1ccccc1 (centres undefined) ? > 62.5 µM (inactive)

====

system: HOP-92; assay: NCI tumour cell line growth inhibition, 48 h
The source made the active and inactive calls. Rule as the data show it: active = GI50 up to about 1.1 µM and inactive = higher.
measure: GI50

Could you share which GI50 value was measured for CSc1ccc(/C=C2\N=C(c3ccccc3)N(NC(=O)c3c(Cl)c(Cl)c(Cl)c(Cl)c3-c3nc4ccccc4[nH]3)C2=O)cc1 ? 17.5 µM (inactive)

More entries:
Give its GI50 value. Item: O=c1[nH]c(=O)n([C@H]2CCCO2)cc1F > 3120 µM (inactive)

Query (compound): CC(=O)Nc1cc(Cl)cc(Cl)c1O ; field requested: GI50 > 100 µM (inactive)

====

tested on: KM12; assay: NCI tumour cell line growth inhibition, 48 h
The source made the active and inactive calls. Rule as the data show it: active = GI50 up to about 1.1 µM and inactive = higher.
measure: GI50

I'd like to know its GI50. The compound in question is CN(C)CCCNC(=O)c1c(O)c2ccccc2n(C)c1=O > 100 µM (inactive)

What does the data say about its GI50? Entry: Cc1ccc(NCC2(/N=C/c3ccccc3)OC(CO)C(O)C2O)cc1 (centres undefined) 67.9 µM (inactive)

Any idea what its GI50 is? The compound is CC[C@@]1(O)C(=O)OCc2c1cc1n(c2=O)Cc2c-1nc1ccccc1c2/C=N\NC(=O)C(N)CC(C)C (some centres undefined) 0.152 µM (active)

Please report the recorded GI50 for CC(=O)OC[C@@]12Cc3ccc(C)c(O)c3[C@]1(C)[C@@H](OC(C)=O)[C@]1(O)[C@H]([C@@H](OC(=O)c3ccccc3)[C@@H](C)[C@H]1OC(C)=O)[C@H]2OC(C)=O . > 50 µM (inactive)

Which GI50 is listed for Cc1ccc(C)c(/C(=N\N=C(N)N)C2CC2)c1 ? 39.9 µM (inactive)

More entries:
Quick one: GI50 of Clc1cccc(Cl)c1C1SCC2=Nc3ccccc3CN21 (centres undefined) ? 20.8 µM (inactive)

Would you mind telling me what GI50 value was observed for O=C(CCc1nnc2s/c(=C\c3ccccc3Cl)c(=O)n12)Nc1cc(Cl)ccc1Cl ? > 100 µM (inactive)

Which value of GI50 has been reported for CCCC(CCC)C(=O)O [VALPROIC ACID] in the records? 14300 µM (inactive)

Request the reported GI50 associated with COc1ccc(-n2c3c(c4cc(O)ccc42)C(=O)c2ccccc2C3=O)cc1 2.13 µM (inactive)

====

system: TK-10; assay: NCI tumour cell line growth inhibition, 48 h
Activity calls are given as the source filed them. Rule as the data show it: active = GI50 up to about 1.1 µM and inactive = higher.
measure: GI50

Lab note: need GI50 for CC1(C)N=C(/C=N/O)C(C)(C)N1O on TK-10, anyone have it? > 100 µM (inactive)

Continuing:
Form field - read-out: GI50; system: TK-10; submitted item: COC(=O)C1=NN2c3ccccc3C(=O)OCCC2C1 (stereo unspecified) > 100 µM (inactive)

Query for TK-10: what GI50 does the record show for COc1ccc(/C(Cl)=C(\C=O)c2ccc(Cl)cc2)cc1 ? 6.15 µM (inactive)

Form field: GI50 recorded for COC(=O)C1=C(C[S+]([O-])c2ccccc2[N+](=O)[O-])ON(C)C1c1ccccc1 (stereo unspecified) with TK-10 (enter value) 35.7 µM (inactive)

====

system: OVCAR-8; assay: NCI tumour cell line growth inhibition, 48 h
Active and inactive are the calls of the source. Cut-off read from the data, not from the text of the source: active = GI50 up to about 1.1 µM and inactive = higher.
measure: GI50

// query GI50 value for entry Cc1c2c(cc3c(=O)ccn(CCN(C)C)c13)c(=O)ccn2CCN(C)C 4.76 µM (inactive)

Give its GI50 value. Item: O=[N+]([O-])c1nccn1COCCF > 100 µM (inactive)

Could you tell me which GI50 is on file for Nc1nc(Cl)cc(NC2(CO)CCC2)n1 ? > 100 µM (inactive)

Which GI50 is listed for N#CC1C(=S)NC(c2ccccc2)=CC12CCCCC2 (stereo not given) ? 32.1 µM (inactive)

Kindly consider the entry below.
// returns reported GI50 for input CCOc1cc2c(cc1O)C=C[C@@H]1[C@@H]2CC[C@]2(C)[C@@H](O)CC[C@@H]12 4.29 µM (inactive)

====

system: HL-60; assay: NCI tumour cell line growth inhibition, 48 h
The source made the active and inactive calls. Rule as the data show it: active = GI50 up to about 1.1 µM and inactive = higher.
Tick one outcome: True = active, False = inactive

Name the outcome recorded for O=C1c2cc([N+](=O)[O-])cc3cc([N+](=O)[O-])cc(c23)C(=O)N1CCCNCCNCCCN1C(=O)c2cc([N+](=O)[O-])cc3cc([N+](=O)[O-])cc(c23)C1=O in the assay. True

Identify the outcome logged in this assay for the compound shown: N=C(N)SCc1ccc2c(c1)Sc1ccccc1O2 False

Please share the test call associated with OC1(c2ccccc2)C2CC=CC2C1(c1ccccc1)c1ccccc1 (stereo unspecified) . False

Hi, do you know how [O-]/N=[N+](/[O-])C1CCCCC1=[N+]1CCOCC1 (stereo unspecified) came out in this test? False

Assay result, entry O=C(/C=C/c1ccc(C(F)(F)F)cc1)c1c([O-])on[n+]1-c1ccccc1 — outcome? True

For CC[C@@]1(O)C(=O)OCc2c1cc1n(c2=O)Cc2c-1nc1ccccc1c2/C=N\NC(=O)C(N)CC(C)C (stereo partly specified) , what call appears in the results of this test? True

# outcome recorded in this test, key = O=S1(=O)OCCOS(=O)(=O)C1(Br)Br False

Answer briefly: the call reported for CCOC(=O)CCC(NC(=O)C(N)c1ccc([N+](=O)[O-])cc1)C(=O)NC(CCC(=O)OCC)C(=O)OCC (stereo unspecified) in this assay. False

Please indicate how the test categorized Cc1cn(CC(=S)NCCc2c[nH]c3ccccc23)c(=O)[nH]c1=O . False

Which outcome did this test record for the compound N#CC1C(=S)NC(c2ccccc2)=CC12CCCCC2 (stereo unspecified) ? False

***
Could you kindly confirm the outcome this assay logged for CC(=O)Nc1c(S(=O)(=O)c2ccccc2)c(C)c(C)n1CCN(C)C ? False

Per the records of this test, what outcome belongs to CC(C)(C)/N=C/N1C=Cc2nc3ccccc3cc2C1 ? False

What call does the record list for N=C(N)NS(=O)(=O)c1ccc(NC(=O)c2ccc3nc4ccccc4c(Nc4ccc(S(N)(=O)=O)cc4)c3c2)cc1 ? False

Returns: the outcome recorded for CN1CCc2cc(O)c3cc2C1Cc1ccc(cc1)Oc1cc(ccc1O)CC1c2c(cc4c(c2O3)OCO4)CCN1C (stereo unspecified) in this assay. False

Lab log entry: S=c1nc(N2CCCCC2)c2cn[nH]c2[nH]1 — outcome as called in the assay? False

// return assay outcome for OC(c1ccc(F)cc1)C(F)(F)c1nc2ccccc2o1 (stereo unspecified) False

Hi, do you know how CC(/C=C/c1ccc([N+](=O)[O-])o1)=N/N1CC(CN2CCOCC2)OC1=O (stereo unspecified) came out in this test? False

// outcome(item) with item = Cc1ccc(C(=O)N/N=C(\N=N\c2ccccc2)c2ccc(N(CCC#N)CCC#N)cc2C)cc1 False

Please state the recorded outcome for this compound: O=C1C=C(C2=C(C3=CC(=O)c4ccccc4C3=O)C(=O)c3ccccc3C2=O)C(=O)c2ccccc21 False

# lookup: test call for CC(=O)Nc1cc(Cl)cc(Cl)c1O False

// outcome(item) with item = O=C1c2ccccc2C2(c3ccc(Cl)cc3)NCc3ccccc3CN12 (stereo unspecified) False
